Source: patent US20180111893A1

# Tested on: Pseudomonas aeruginosa (PAO1)
# assay.protocol: Minimum inhibitory concentration (MIC)
# Type: cell-based
# stated.conditions: Table 6
Rule: measured MIC PA below 4 µM gets Condition met; anything equal to or greater than 4 µM gets Condition not met.

{"line.notation": "CCCCCCCCCCC[N+](C)(C)CCCN(CCC[N+](C)(C)CCCCCCCCCCC)CCC[N+](C)(C)CCCCCCCCCCC", "category.label": "Condition met"}
{"line.notation": "CCCCCCCCCCC[N+](C)(C)CCC[N+](CCC[N+](C)(C)CCCCCCCCCCC)(CCC[N+](C)(C)CCCCCCCCCCC)Cc1ccccc1", "category.label": "Condition met"}
{"line.notation": "C=CC[N+](CCC[N+](C)(C)CCCCCCCCCCCCCC)(CCC[N+](C)(C)CCCCCCCCCCCCCC)CCC[N+](C)(C)CCCCCCCCCCCCCC", "category.label": "Condition not met"}
{"line.notation": "CCCCCCCCCCCCC[N+](C)(C)CCCN(CCC[N+](C)(C)CCCCCCCCCCCCC)CCC[N+](C)(C)CCCCCCCCCCCCC", "category.label": "Condition not met"}
{"line.notation": "C=CC[N+](CCC[N+](C)(C)CCCCCCCCCC)(CCC[N+](C)(C)CCCCCCCCCC)CCC[N+](C)(C)CCCCCCCCCC", "category.label": "Condition met"}

I'd appreciate it if you could check whether CCCCCCCC[N+](C)(C)CCC[N+](C)(CCC[N+](C)(C)CCCCCCCC)CCC[N+](C)(C)CCCCCCCC has MIC PA smaller than 4 µM.
Condition not met

Item: C=CC[N+](CCC[N+](C)(C)CCCCCCCCCCC)(CCC[N+](C)(C)CCCCCCCCCCC)CCC[N+](C)(C)CCCCCCCCCCC
Condition met

Item: CCCCCCCC[N+](C)(C)CCCN(CCC[N+](C)(C)CCCCCCCC)CCC[N+](C)(C)CCCCCCCC
Condition not met

Item: CCCCCCCCCCCCCC[N+](C)(C)CCCN(CCC[N+](C)(C)CCCCCCCCCCCCCC)CCC[N+](C)(C)CCCCCCCCCCCCCC
Condition not met

Item: C=CC[N+](CCC[N+](C)(C)CCCCCCCCCCCCCCCCCC)(CCC[N+](C)(C)CCCCCCCCCCCCCCCCCC)CCC[N+](C)(C)CCCCCCCCCCCCCCCCCC
Condition not met

Item: CCCCCCCCCCC[N+](C)(C)CCC[N+](C)(CCC[N+](C)(C)CCCCCCCCCCC)CCC[N+](C)(C)CCCCCCCCCCC.[Br-].[Br-].[Br-].[I-]
Condition met

Item: CCCCCCCCCCCCCC[N+](C)(C)CCC[N+](C)(CCC[N+](C)(C)CCCCCCCCCCCCCC)CCC[N+](C)(C)CCCCCCCCCCCCCC
Condition not met

* * *

Each entry below carries its reported MIC PA.
# System: Pseudomonas aeruginosa (PAO1)
# assay.protocol: Minimum inhibitory concentration (MIC)
# Assay type: cell-based
# stated.conditions: Table 6
I only need the number, in µM, no unit after it.

{"compound": "CCCCCCCCCCCC[N+](C)(C)CCCN(CCC[N+](C)(C)CCCCCCCCCCCC)CCC[N+](C)(C)CCCCCCCCCCCC [sT-12,12,12,0]", "MIC PA [µM]": 4}

Report MIC PA for CCCCCCCCCCCCC[N+](C)(C)CCC[N+](C)(CCC[N+](C)(C)CCCCCCCCCCCCC)CCC[N+](C)(C)CCCCCCCCCCCCC [sT-13,13,13,1] please.
4

Item: CCCCCCCCCCCC[N+](C)(C)CCC[N+](C)(CCC[N+](C)(C)CCCCCCCCCCCC)CCC[N+](C)(C)CCCCCCCCCCCC [sT-12,12,12,1]
4
